- SYSTEM_TESTED: T1, recombinant human ROR1 extracellular domain (human, UniProt Q01973 30-406)
- T1 construct: biotinylated for the filter lifts; also called huROR1-ECD; human ROR1-ECD
- ASSAY_PROTOCOL: ELISA with prolonged wash, soluble Fab on coated huROR1-ECD
Rule: measured Kd below 5 nM gets Criterion met; anything equal to or greater than 5 nM gets Criterion not met.

BINDER	CLASS
Ab1 Fab variant H1 T32A + H2 N71H (Fab, V domains shown, Fab) VH: QVQLQESGPGLVKPSQTLSLTCTVSGYAFAAYNIHWVRQAPGQGLEWMGSFDPYDGGSSYHQKFKDRLTISKDTSKNQVVLTMTNMDPVDTATYYCARGWYYFDYWGHGTLVTVSS VL: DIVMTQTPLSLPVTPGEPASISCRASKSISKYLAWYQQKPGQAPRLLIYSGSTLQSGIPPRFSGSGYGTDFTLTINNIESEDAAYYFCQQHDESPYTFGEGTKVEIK	Criterion met
Ab1 Fab variant H1 T32A + H2 S69V (Fab, V domains shown, Fab) VH: QVQLQESGPGLVKPSQTLSLTCTVSGYAFAAYNIHWVRQAPGQGLEWMGSFDPYDGGSVYNQKFKDRLTISKDTSKNQVVLTMTNMDPVDTATYYCARGWYYFDYWGHGTLVTVSS VL: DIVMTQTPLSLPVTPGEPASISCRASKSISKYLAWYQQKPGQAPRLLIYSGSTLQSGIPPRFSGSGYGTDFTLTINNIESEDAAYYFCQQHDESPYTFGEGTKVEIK	Criterion met
Ab1 Fab variant H1 T32A + H2 F58V, G66E (Fab, V domains shown, Fab) VH: QVQLQESGPGLVKPSQTLSLTCTVSGYAFAAYNIHWVRQAPGQGLEWMGSVDPYDEGSSYNQKFKDRLTISKDTSKNQVVLTMTNMDPVDTATYYCARGWYYFDYWGHGTLVTVSS VL: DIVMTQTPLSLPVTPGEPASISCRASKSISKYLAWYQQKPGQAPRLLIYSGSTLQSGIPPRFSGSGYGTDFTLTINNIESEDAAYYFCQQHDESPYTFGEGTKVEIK	Criterion met

For the next question, use this binder.
Q: Would you kindly verify if Kd of Ab1 Fab variant H1 T32A + H2 F58V, G66E, S69V (Fab, V domains shown, Fab) VH: QVQLQESGPGLVKPSQTLSLTCTVSGYAFAAYNIHWVRQAPGQGLEWMGSVDPYDEGSVYNQKFKDRLTISKDTSKNQVVLTMTNMDPVDTATYYCARGWYYFDYWGHGTLVTVSS VL: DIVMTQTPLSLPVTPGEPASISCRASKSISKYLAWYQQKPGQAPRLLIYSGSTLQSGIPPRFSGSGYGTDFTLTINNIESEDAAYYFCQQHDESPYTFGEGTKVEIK is strictly less than 5 nM?
Result: Criterion not met
